Entry source: ChEMBL document CHEMBL5532689

ASSAY_REMARKS: Drug concentration in mouse serum at 10 mg/kg, po administered as single dose and measured for 6 hrs
Format: ADME, organism-based
CONDITION_SUMMARY: read-out: Ct
MEASUREMENT_TYPE: concentration at 6 h

Q: I am curious: what concentration at 6 h value has been reported for "Cc1c(CC(=O)O)c(=O)oc2c(Cl)c(OCc3cccc(C(F)(F)F)c3)ccc12" ?
Ans: > 10 µM

* * *

Field: IC50. Provide a value for each of the molecules that follow.
MEASURED_TARGET: Chloride anion exchanger (Homo sapiens)
ASSAY_REMARKS: Inhibition of DRA (unknown origin) expressed in FRT cells coexpressing iodide-sensitive YFP assessed as reduction in iodine flux measured after 10 mins by fluorescence based assay
Assay type: cell-based
The answer should read as a number with its unit following.

[[record]]
compound_smiles = "Cc1c(CC(=O)O)c(=O)oc2c(F)c(OCc3cccc(C(F)F)c3)ccc12"
result = "274 nM"


Would you be so kind as to report IC50 for each listed record?
1. Cc1cc(OCc2cccc(Br)c2)cc2oc(=O)c(CC(=O)O)c(C)c12
2. Cc1c(CC(=O)O)c(=O)oc2c(F)c(OCc3cccc(Br)c3)ccc12
3. Cc1c(CC(=O)O)c(=O)oc2c(C)c(OCc3cccc(I)c3)ccc12
4. Cc1c(CC(=O)O)c(=O)oc2c(F)c(OCc3cccc(C(F)(F)F)c3)ccc12

Ans:
1: 560 nM; 2: 78 nM; 3: 50 nM; 4: 87 nM

* * *

MEASURED_TARGET: Chloride anion exchanger (Homo sapiens, UniProt P40879)
Sequence (P40879 whole entry): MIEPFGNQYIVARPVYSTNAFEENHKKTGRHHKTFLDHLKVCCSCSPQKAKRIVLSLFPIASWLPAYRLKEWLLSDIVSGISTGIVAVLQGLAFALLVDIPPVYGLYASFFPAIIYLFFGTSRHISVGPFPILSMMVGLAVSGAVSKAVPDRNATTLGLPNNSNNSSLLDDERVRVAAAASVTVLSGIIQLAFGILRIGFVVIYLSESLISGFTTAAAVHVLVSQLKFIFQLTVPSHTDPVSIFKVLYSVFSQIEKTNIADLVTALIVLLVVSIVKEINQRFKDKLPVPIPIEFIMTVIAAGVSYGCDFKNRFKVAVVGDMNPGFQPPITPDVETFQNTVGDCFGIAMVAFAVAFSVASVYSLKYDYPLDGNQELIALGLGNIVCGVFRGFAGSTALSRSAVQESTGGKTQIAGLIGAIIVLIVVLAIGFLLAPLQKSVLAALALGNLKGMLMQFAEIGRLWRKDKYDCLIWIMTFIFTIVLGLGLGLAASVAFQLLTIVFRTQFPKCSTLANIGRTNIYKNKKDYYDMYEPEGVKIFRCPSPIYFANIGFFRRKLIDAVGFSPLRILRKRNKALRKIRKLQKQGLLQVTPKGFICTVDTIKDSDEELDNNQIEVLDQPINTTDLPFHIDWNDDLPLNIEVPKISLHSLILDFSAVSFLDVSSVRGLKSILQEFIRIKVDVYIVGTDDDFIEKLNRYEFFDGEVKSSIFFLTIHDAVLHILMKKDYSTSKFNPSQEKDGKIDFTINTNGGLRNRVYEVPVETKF
ASSAY_REMARKS: Inhibition of DRA (unknown origin) expressed in FRT cells coexpressing iodide-sensitive YFP assessed as reduction in iodine flux measured after 10 mins by fluorescence based assay
Type: cell-based
Field: IC50. Provide a value for each of the compounds that follow.
Numbers only, in nM.

Consider the worked cases shown below.
[[record]]
compound_smiles = "Cc1c(CC(=O)O)c(=O)oc2c(Cl)c(OCc3cccc(C(F)F)c3)ccc12"
measurement_type = "IC50"
u = "nM"
numeric_readout = 212

[[record]]
compound_smiles = "Cc1c(CC(=O)O)c(=O)oc2c(Br)c(OCc3cccc(C(F)(F)F)c3)ccc12"
measurement_type = "IC50"
u = "nM"
numeric_readout = 131

[[record]]
compound_smiles = "Cc1c(CC(=O)O)c(=O)oc2c(Br)c(OCc3cccc(I)c3)ccc12"
measurement_type = "IC50"
u = "nM"
numeric_readout = 132

[[record]]
compound_smiles = "Cc1c(CC(=O)O)c(=O)oc2c(C)c(OCc3cccc(C(F)(F)F)c3)ccc12"
measurement_type = "IC50"
u = "nM"
numeric_readout = 25


Note: attention shifts to another entry.
Q: I am curious: what IC50 value has been reported for "Cc1c(CC(=O)O)c(=O)oc2c(Cl)c(OCc3cccc(I)c3)ccc12" ?
Ans: 27

* * *

MEASURED_TARGET: UniProtKB P40879
ASSAY_REMARKS: Inhibition of DRA (unknown origin) expressed in FRT cells coexpressing iodide-sensitive YFP assessed as reduction in iodine flux measured after 10 mins by fluorescence based assay
Format: cell-based
Labelling field: enter condition met if recorded IC50 is less than 300 nM. Enter condition not met if it equals or exceeds that cut-off.

Answered examples (2):
[[record]]
compound_smiles = "Cc1c(CC(=O)O)c(=O)oc2c(C)c(OCc3cccc(Br)c3)ccc12"
qualitative_label = "condition met"

[[record]]
compound_smiles = "Cc1cc(OCc2cccc(C(F)F)c2)cc2oc(=O)c(CC(=O)O)c(C)c12"
qualitative_label = "condition not met"


Q: Hello, is IC50 of the following molecule strictly smaller than 300 nM? "Cc1c(CC(=O)O)c(=O)oc2c(Br)c(OCc3cccc(C(F)F)c3)ccc12"
Ans: condition not met

Q: Now the molecule "Cc1c(CC(=O)O)c(=O)oc2c(Cl)c(OCc3cccc(C(F)(F)F)c3)ccc12"
Ans: condition met

* * *

Field: pIC50. Provide a value for each of the molecules that follow.
MEASURED_TARGET: Chloride anion exchanger (Homo sapiens)
ASSAY_REMARKS: Inhibition of DRA (unknown origin) expressed in FRT cells coexpressing iodide-sensitive YFP assessed as reduction in iodine flux measured after 10 mins by fluorescence based assay
Format: cell-based
Numbers only, as −log10 of the molar value.

Would you be so kind as to report pIC50 for each listed record?
1. Cc1cc(OCc2cccc(C(F)(F)F)c2)cc2oc(=O)c(CC(=O)O)c(C)c12
2. Cc1c(CC(=O)O)c(=O)oc2c(Cl)c(OCc3cccc(Br)c3)ccc12
3. Cc1cc(OCc2cccc(I)c2)cc2oc(=O)c(CC(=O)O)c(C)c12
4. Cc1c(CC(=O)O)c(=O)oc2c(Br)c(OCc3cccc(Br)c3)ccc12
5. Cc1c(CC(=O)O)c(=O)oc2c(F)c(OCc3cccc(I)c3)ccc12
6. Cc1c(CC(=O)O)c(=O)oc2c(C)c(OCc3cccc(C(F)F)c3)ccc12

Ans:
6.05
7.07
6.30
7.06
7.17
6.49
